- measured.on: Retinoic acid receptor alpha (Homo sapiens, UniProt P10276)
- test.details: Binding affinity for Retinoic Acid Receptor alpha (RAR alpha).
property.name: IC50 (nM)
Kindly answer with a numeric value in nM, unit omitted.

Reported IC50 of CC1(C)CCC(C)(C)c2nc(C(=O)Nc3ccc(C(=O)O)cc3)cnc21 : 40

---

Provide the recorded EC30 for the entries that follow.
- measured.on: UniProt P10826
- Sequence (P10826 whole entry): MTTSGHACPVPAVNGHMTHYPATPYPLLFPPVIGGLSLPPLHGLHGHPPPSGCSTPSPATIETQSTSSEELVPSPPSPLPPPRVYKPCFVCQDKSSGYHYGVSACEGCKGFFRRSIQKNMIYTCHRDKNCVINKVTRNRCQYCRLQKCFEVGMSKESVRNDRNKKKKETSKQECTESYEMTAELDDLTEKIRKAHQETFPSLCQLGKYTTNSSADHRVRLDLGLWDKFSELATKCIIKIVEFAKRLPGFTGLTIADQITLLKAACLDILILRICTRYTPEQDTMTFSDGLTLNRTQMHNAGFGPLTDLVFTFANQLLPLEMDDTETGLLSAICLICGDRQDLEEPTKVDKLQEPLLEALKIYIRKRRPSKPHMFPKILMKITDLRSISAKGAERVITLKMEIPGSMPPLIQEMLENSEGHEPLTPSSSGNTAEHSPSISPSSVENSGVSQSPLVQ
- test.details: Transcriptional activation of Retinoic Acid Receptor beta (RAR beta)
- Type: functional
Kindly answer with a numeric value in nM, unit omitted.

// assay UniProt P10826, entry CC1(C)CCC(C)(C)c2nc(-c3cc(-c4ccc(C(=O)O)cc4)co3)cnc21 , EC30 value = 0.18

// assay UniProt P10826, entry CC1(C)CCC(C)(C)c2nc(-c3cc(-c4ccc(C(=O)O)cc4)[nH]n3)cnc21 , EC30 value = 0.85

// assay UniProt P10826, entry CC1(C)CCC(C)(C)c2nc(-c3csc(-c4ccc(C(=O)O)cc4)n3)cnc21 , EC30 value = 0.39

// assay UniProt P10826, entry CC1(C)CCC(C)(C)c2nc(-c3c[nH]c(-c4ccc(C(=O)O)cc4)n3)cnc21 , EC30 value = 40

// assay UniProt P10826, entry Cn1c(-c2ccc(C(=O)O)cc2)ccc1-c1cnc2c(n1)C(C)(C)CCC2(C)C , EC30 value = 14

---

- measured.on: Retinoic acid receptor alpha (Homo sapiens) (UniProt P10276)
- Sequence (whole entry): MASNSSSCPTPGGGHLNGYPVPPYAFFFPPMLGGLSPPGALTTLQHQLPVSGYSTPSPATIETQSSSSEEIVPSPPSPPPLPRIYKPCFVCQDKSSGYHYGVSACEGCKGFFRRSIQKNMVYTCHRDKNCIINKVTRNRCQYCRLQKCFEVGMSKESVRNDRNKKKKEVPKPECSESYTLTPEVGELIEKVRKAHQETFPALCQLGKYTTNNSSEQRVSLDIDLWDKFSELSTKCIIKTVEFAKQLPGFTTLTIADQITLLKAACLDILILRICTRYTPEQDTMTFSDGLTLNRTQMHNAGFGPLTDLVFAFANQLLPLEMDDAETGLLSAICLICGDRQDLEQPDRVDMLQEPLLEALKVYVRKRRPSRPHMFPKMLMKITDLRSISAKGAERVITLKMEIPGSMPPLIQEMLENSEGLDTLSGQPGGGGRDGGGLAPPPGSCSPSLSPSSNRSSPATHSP
- test.details: Transcriptional activation of Retinoic Acid Receptor alpha (RAR alpha)
- Type: functional
// NB: equality with 2 nM counts as 0; only EC30 strictly below is 1

Criterion: EC30 strictly below 2 nM. Is it met by CC1(C)CCC(C)(C)c2nc(-c3csc(-c4ccc(C(=O)O)cc4)n3)cnc21 ?
0

Criterion: EC30 strictly below 2 nM. Is it met by CC1(C)CCC(C)(C)c2nc(C(=O)Nc3ccc(C(=O)O)cc3)cnc21 ?
1

Criterion: EC30 strictly below 2 nM. Is it met by CC1(C)CCC(C)(C)c2nc(-c3ccc(-c4ccc(C(=O)O)cc4)o3)cnc21 ?
1

Criterion: EC30 strictly below 2 nM. Is it met by CC1(C)CCC(C)(C)c2nc(-c3cc(-c4ccc(C(=O)O)cc4)[nH]n3)cnc21 ?
1

Criterion: EC30 strictly below 2 nM. Is it met by CC1(C)CCC(C)(C)c2nc(-c3cc(-c4ccc(C(=O)O)cc4)c[nH]3)cnc21 ?
0

Criterion: EC30 strictly below 2 nM. Is it met by CC1(C)CCC(C)(C)c2nc(-c3c[nH]c(-c4ccc(C(=O)O)cc4)n3)cnc21 ?
0

Criterion: EC30 strictly below 2 nM. Is it met by Cn1c(-c2ccc(C(=O)O)cc2)ccc1-c1cnc2c(n1)C(C)(C)CCC2(C)C ?
0

Criterion: EC30 strictly below 2 nM. Is it met by CC1(C)CCC(C)(C)c2nc(-c3cc(-c4ccc(C(=O)O)cc4)co3)cnc21 ?
1

Criterion: EC30 strictly below 2 nM. Is it met by CC1(C)CCC(C)(C)c2nc(-c3ccc(-c4ccc(C(=O)O)cc4)s3)cnc21 ?
0

Criterion: EC30 strictly below 2 nM. Is it met by CC1(C)CCC(C)(C)c2nc(-c3cc(-c4ccc(C(=O)O)cc4)cs3)cnc21 ?
1

---

- measured.on: Retinoic acid receptor gamma (Homo sapiens)
- Sequence (P13631 whole entry): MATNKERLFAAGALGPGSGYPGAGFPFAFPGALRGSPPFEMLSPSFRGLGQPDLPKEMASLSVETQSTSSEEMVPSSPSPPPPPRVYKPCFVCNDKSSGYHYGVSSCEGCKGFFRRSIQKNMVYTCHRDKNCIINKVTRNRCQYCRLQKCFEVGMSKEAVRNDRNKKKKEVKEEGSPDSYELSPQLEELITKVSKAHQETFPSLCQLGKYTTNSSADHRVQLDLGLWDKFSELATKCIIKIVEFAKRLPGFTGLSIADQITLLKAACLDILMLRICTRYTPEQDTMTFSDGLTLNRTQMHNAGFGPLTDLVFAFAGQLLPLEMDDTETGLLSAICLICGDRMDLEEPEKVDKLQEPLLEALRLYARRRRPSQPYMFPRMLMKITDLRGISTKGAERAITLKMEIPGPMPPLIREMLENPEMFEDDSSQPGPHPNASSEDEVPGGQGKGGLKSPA
- test.details: Transcriptional activation in COS-1 cells expressing Retinoic Acid Receptor gamma (RAR gamma)
- Assay type: functional, cell-based
property.name: EC30 (nM)
Kindly answer with a numeric value in nM, unit omitted.

Reported EC30 of CC1(C)CCC(C)(C)c2nc(-c3ccc(-c4ccc(C(=O)O)cc4)[nH]3)cnc21 : 20

Reported EC30 of CC1(C)CCC(C)(C)c2cc(-c3ccc(-c4ccc(C(=O)O)cc4)[nH]3)ccc21 : 3.5

Reported EC30 of CC1(C)CCC(C)(C)c2cc(C(=O)Nc3ccc(C(=O)O)cc3)ccc21 : 33

Reported EC30 of CC1(C)CCC(C)(C)c2cc(NC(=O)c3ccc(C(=O)O)cc3)ccc21 : 150

---

- measured.on: Retinoic acid receptor gamma (Homo sapiens)
- test.details: Binding affinity for Retinoic Acid Receptor gamma (RAR gamma)
property.name: log10(IC50) (log10 of the value in nM)
On a log10 scale: recorded IC50, unit nM.

Reported log10(IC50) of CC1(C)CCC(C)(C)c2nc(-c3cc(-c4ccc(C(=O)O)cc4)co3)cnc21 : 1.43

Reported log10(IC50) of CC1(C)CCC(C)(C)c2nc(-c3cc(-c4ccc(C(=O)O)cc4)cs3)cnc21 : 0.30

Reported log10(IC50) of CC1(C)CCC(C)(C)c2nc(-c3ccc(-c4ccc(C(=O)O)cc4)o3)cnc21 : 0.66

Reported log10(IC50) of CC1(C)CCC(C)(C)c2nc(-c3ccc(-c4ccc(C(=O)O)cc4)s3)cnc21 : 1.23

Reported log10(IC50) of CC1(C)CCC(C)(C)c2nc(-c3cc(-c4ccc(C(=O)O)cc4)c[nH]3)cnc21 : 2.18

Reported log10(IC50) of CC1(C)CCC(C)(C)c2nc(-c3csc(-c4ccc(C(=O)O)cc4)n3)cnc21 : 0.56

---

- measured.on: Retinoic acid receptor alpha (Homo sapiens, UniProt P10276)
- test.details: Binding affinity for Retinoic Acid Receptor alpha (RAR alpha)
property.name: IC50 (nM)
Kindly answer with a numeric value in nM, unit omitted.

Reported IC50 of CC1(C)CCC(C)(C)c2cc(-c3ccc(-c4ccc(C(=O)O)cc4)[nH]3)ccc21 : 0.45

---

- measured.on: Retinoic acid receptor alpha (Homo sapiens) (UniProt P10276)
- Sequence (whole entry): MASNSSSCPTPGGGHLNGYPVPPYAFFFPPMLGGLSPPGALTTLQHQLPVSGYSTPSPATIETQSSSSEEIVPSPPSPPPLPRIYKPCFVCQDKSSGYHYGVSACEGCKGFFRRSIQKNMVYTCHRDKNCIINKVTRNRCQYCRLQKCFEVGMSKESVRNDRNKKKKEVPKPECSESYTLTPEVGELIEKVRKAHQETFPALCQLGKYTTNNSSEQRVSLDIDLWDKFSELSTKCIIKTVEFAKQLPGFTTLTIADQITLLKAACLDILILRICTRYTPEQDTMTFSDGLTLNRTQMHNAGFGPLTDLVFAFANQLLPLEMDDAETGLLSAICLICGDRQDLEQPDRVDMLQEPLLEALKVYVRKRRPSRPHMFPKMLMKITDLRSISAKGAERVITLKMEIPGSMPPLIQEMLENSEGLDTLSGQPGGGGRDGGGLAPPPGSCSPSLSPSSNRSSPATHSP
- test.context: HL-60
- Description: Induction of HL-60 cell differentiation at Retinoic Acid Receptor alpha (RAR alpha)
Entry flag: Condition met if ED30 reaches 0.9 nM; Condition not met if it does not.

Check if ED30 >= 0.9 nM (inclusive). Item: CC1(C)CCC(C)(C)c2nc(-c3ccc(-c4ccc(C(=O)O)cc4)s3)cnc21
Condition met

Check if ED30 >= 0.9 nM (inclusive). Item: CC1(C)CCC(C)(C)c2nc(-c3cc(-c4ccc(C(=O)O)cc4)[nH]n3)cnc21
Condition met

Check if ED30 >= 0.9 nM (inclusive). Item: CC1(C)CCC(C)(C)c2nc(-c3cc(-c4ccc(C(=O)O)cc4)cs3)cnc21
Condition met

Check if ED30 >= 0.9 nM (inclusive). Item: CC1(C)CCC(C)(C)c2nc(-c3ccc(-c4ccc(C(=O)O)cc4)o3)cnc21
Condition met

Check if ED30 >= 0.9 nM (inclusive). Item: CC1(C)CCC(C)(C)c2nc(C(=O)Nc3ccc(C(=O)O)cc3)cnc21
Condition not met

Check if ED30 >= 0.9 nM (inclusive). Item: CC1(C)CCC(C)(C)c2nc(-c3ccc(-c4ccc(C(=O)O)cc4)[nH]3)cnc21
Condition not met

Check if ED30 >= 0.9 nM (inclusive). Item: CC1(C)CCC(C)(C)c2nc(-c3cc(-c4ccc(C(=O)O)cc4)co3)cnc21
Condition not met

Check if ED30 >= 0.9 nM (inclusive). Item: CC1(C)CCC(C)(C)c2nc(-c3csc(-c4ccc(C(=O)O)cc4)n3)cnc21
Condition met

Check if ED30 >= 0.9 nM (inclusive). Item: CC1(C)CCC(C)(C)c2cc(-c3ccc(-c4ccc(C(=O)O)cc4)[nH]3)ccc21
Condition not met

Check if ED30 >= 0.9 nM (inclusive). Item: CC1(C)CCC(C)(C)c2nc(-c3cc(-c4ccc(C(=O)O)cc4)c[nH]3)cnc21
Condition met
